Parameter pIC50: see the listing below.
target: Phospho-EGFR (Tyr1068) in H1975 cells (Homo sapiens, UniProt P00533, L858R/T790M); construct: host or cells: H1975; experiment: HTRF pEGFR/total EGFR assay in H1975 cells; assay type: cell-based; settings: compound 3 hours, ratio pEGFR/total EGFR
Sequence (P00533 25-1210 T790M/L858R): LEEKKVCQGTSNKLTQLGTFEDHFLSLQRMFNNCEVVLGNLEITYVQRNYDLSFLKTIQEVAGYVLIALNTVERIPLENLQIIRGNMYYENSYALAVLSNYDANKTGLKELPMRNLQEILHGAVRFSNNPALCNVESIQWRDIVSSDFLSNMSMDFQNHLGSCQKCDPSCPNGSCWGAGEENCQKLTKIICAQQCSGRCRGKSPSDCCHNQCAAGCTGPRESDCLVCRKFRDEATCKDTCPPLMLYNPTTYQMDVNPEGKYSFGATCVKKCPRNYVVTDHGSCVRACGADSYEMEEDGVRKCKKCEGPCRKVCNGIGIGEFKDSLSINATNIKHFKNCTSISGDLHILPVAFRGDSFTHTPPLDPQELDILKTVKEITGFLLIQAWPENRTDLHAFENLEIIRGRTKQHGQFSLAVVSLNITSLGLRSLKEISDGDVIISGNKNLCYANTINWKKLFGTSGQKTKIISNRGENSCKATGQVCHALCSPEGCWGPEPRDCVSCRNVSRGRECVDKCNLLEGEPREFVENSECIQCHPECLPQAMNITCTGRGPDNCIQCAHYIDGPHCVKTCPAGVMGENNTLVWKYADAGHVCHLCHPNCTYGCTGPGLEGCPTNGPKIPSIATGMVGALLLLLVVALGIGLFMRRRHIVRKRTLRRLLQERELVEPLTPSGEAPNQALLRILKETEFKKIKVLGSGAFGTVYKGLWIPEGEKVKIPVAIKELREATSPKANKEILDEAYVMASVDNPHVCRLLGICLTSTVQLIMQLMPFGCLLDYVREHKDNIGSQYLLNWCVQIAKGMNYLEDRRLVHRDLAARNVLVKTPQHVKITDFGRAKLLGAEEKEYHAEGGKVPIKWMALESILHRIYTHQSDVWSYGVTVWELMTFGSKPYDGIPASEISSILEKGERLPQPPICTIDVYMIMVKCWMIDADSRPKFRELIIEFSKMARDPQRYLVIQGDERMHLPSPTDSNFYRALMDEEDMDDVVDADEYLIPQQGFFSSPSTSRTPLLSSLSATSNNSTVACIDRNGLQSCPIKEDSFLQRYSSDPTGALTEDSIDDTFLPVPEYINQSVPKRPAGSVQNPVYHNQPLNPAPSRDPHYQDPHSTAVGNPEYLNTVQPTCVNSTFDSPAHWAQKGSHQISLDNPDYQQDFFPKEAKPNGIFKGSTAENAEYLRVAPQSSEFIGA
pIC50: −log10 of the molar value.

> print(dat)
                                   compound                             system.tested  measured.quantity  endpoint.value
1  C#Cc1cc(-n2cc(C)cn2)nc2nc(Nc3ccc(N(C)CCN(C)C)cc3)ncc12 [Example 34]  Phospho-EGFR (Tyr1068) in H1975 cells (Homo sapiens, UniProt P00533, L858R/T790M)              pIC50          < 5.52

Req: Specify reported pIC50 for the compound shown: C#Cc1cc(Nc2ccccc2)nc2nc(Nc3ccc(N(C)CCN(C)C)cc3)ncc12 [Example 25]
Resp: < 5.52

Req: Specify reported pIC50 for the compound shown: C#Cc1cc(N2C(=O)N(C)CC23CCCC3)nc2nc(Nc3ccc(N4CCN(C5COC5)CC4)cc3)ncc12 [Example 104]
Resp: 5.52 to 6.00

Req: Specify reported pIC50 for the compound shown: C#Cc1cc(OC)nc2nc(Nc3cccc(CN(C)C4CCC4)c3)ncc12 [Example 4]
Resp: < 5.52

Req: Specify reported pIC50 for the compound shown: C#Cc1cc(Nc2nccn2C)nc2nc(Nc3ccc(N4CCN(C)CC4)cc3)ncc12 [Example 26]
Resp: 6.00 to 6.30

Req: Specify reported pIC50 for the compound shown: C#Cc1cc(NC(=O)NC2CN(C(C)=O)C2)nc2nc(Nc3ccc(N4CCN(C)CC4)cc3)ncc12 [Example 54]
Resp: < 5.52

Req: Specify reported pIC50 for the compound shown: C#Cc1cc(N2C(=O)OCC2COC)nc2nc(Nc3ccc(N4CCN(C)CC4)cc3)ncc12 (centres unmarked) [Example 116]
Resp: > 6.30

Req: Specify reported pIC50 for the compound shown: C#Cc1cc(NC(=O)OC2CCCCC2)nc2nc(Nc3ccc(N4CCN(C)CC4)cc3)ncc12 [Example 66]
Resp: < 5.52

* * *

pIC50: −log10 of the molar value.
# pIC50 per entry for UniProt P00533

Consider the worked cases shown below.
> print(dat)
                                   molecule  endpoint.value
1  C#Cc1cc(Nc2nccn2C2CCCC2)nc2nc(Nc3ccc(N4CCN(C)CC4)cc3)ncc12          > 6.00
2  C#Cc1cc(OC2CCC2)nc2nc(Nc3ccc(N4CCN(C)CC4)cc3)ncc12          < 5.00
3  C#Cc1cc(NC(=O)NC2CCCC2)nc2nc(Nc3ccc(N4CCOCC4)cc3)ncc12          > 6.00

Req: Specify reported pIC50 for the molecule shown: C#Cc1cc(N2C(=O)N(C)CC23CCCC3)nc2nc(Nc3ccc(S(=O)(=O)N(C)CCN(C)C)cc3)ncc12
Resp: < 5.00

Req: Specify reported pIC50 for the molecule shown: C#Cc1cc(OCCCc2ccccc2)nc2nc(Nc3ccc(N4CCN(C)CC4)cc3)ncc12
Resp: < 5.00

Req: Specify reported pIC50 for the molecule shown: C#Cc1cc(NC(=O)NC2CCCC2)nc2nc(Nc3ccc(S(C)(=O)=O)cc3)ncc12
Resp: > 6.00

Req: Specify reported pIC50 for the molecule shown: C#Cc1cc(NC(=O)NC2CCOC2)nc2nc(Nc3ccc(N4CCN(C)CC4)cc3)ncc12 (stereo not shown)
Resp: > 6.00

* * *

target: CtermHisTag-mEGFR Triple Mutant - C797S, L858R, T790M (Homo sapiens, UniProt P00533, C797S/L858R/T790M); assay: TR-FRET probe displacement assay, EGFR triple mutant; conditions: T790M 1.25 nM, probe 100 nM, 30 mins room temperature
Sequence (P00533 25-1210 T790M/C797S/L858R): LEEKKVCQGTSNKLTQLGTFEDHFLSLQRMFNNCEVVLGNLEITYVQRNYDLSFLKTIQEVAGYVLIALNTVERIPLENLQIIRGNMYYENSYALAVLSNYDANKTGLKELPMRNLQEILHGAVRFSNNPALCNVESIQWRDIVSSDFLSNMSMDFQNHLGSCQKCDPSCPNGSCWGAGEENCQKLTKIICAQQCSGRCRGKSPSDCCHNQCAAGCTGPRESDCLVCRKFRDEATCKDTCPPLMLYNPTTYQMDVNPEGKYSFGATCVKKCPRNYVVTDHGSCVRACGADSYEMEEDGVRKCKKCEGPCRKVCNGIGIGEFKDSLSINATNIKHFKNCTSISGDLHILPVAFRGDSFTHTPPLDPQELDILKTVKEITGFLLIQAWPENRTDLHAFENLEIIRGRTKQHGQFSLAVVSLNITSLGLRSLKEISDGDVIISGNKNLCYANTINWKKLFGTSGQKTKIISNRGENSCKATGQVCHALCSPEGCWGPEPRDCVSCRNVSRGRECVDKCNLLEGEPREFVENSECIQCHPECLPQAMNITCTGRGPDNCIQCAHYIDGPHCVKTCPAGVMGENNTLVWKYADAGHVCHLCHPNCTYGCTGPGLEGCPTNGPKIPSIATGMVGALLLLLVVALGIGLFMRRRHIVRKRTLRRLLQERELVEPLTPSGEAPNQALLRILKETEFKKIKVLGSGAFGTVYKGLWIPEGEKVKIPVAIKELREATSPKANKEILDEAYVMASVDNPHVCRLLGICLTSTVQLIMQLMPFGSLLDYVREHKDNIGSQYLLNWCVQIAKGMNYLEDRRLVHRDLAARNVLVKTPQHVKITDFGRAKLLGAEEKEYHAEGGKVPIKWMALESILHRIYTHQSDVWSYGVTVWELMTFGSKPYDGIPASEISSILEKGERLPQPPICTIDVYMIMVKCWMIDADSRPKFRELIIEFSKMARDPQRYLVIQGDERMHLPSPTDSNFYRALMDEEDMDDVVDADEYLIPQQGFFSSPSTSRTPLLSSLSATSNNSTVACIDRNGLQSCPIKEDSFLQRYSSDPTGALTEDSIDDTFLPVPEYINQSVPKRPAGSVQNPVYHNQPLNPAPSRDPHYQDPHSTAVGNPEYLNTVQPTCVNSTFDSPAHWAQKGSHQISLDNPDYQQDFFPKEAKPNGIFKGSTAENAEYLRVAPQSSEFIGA
pIC50: −log10 of the molar value.
measured.quantity: pIC50

Consider the worked cases shown below.
> print(dat)
                                   compound  measured.quantity  endpoint.value
1  C#Cc1cc(NC(C)=O)nc2nc(Nc3ccc(N(C)CCN(C)C)cc3)ncc12              pIC50          > 7.70
2  C#Cc1cc(NC(=O)N[C@H]2CCN(C(C)=O)C2)nc2nc(Nc3ccc(N4CCN(C)CC4)cc3)ncc12              pIC50          > 7.70
3  C#Cc1cc(NC(=O)NC2CCCC2)nc2nc(Nc3cccc(N(C)[C@H]4CC[C@@H](CS(C)(=O)=O)CC4)c3)ncc12              pIC50    7.00 to 7.70
4  C#Cc1cc(N2C(=O)OCC2C2CCCC2)nc2nc(Nc3ccc(N4CCNCC4)cc3)ncc12 (stereo not shown)              pIC50          > 7.70
5  C#Cc1c(C)c(OCC2CCCC2)nc2nc(Nc3ccc(N4CCN(C)CC4)cc3)ncc12              pIC50    6.00 to 7.00
6  C#Cc1cc(N2C(=O)N(C)CC23CCCC3)nc2nc(Nc3ccc(N(C)C(C)=O)cc3)ncc12              pIC50    6.00 to 7.00

Req: Specify reported pIC50 for the compound shown: C#Cc1cc(NC(=O)NC2CN(S(C)(=O)=O)C2)nc2nc(Nc3ccc(N4CCN(C)CC4)cc3)ncc12
Resp: > 7.70

Req: Specify reported pIC50 for the compound shown: C#Cc1cc(NC(=O)NCc2cncn2C)nc2nc(Nc3ccc(N4CCN(C)CC4)cc3)ncc12
Resp: > 7.70

Req: Specify reported pIC50 for the compound shown: C#Cc1cc(N2C(=O)N(C)CC2C(C)C)nc2nc(Nc3ccc(N4CCN(C)CC4)cc3)ncc12 (stereo not shown)
Resp: > 7.70

Req: Specify reported pIC50 for the compound shown: C#Cc1cc(N2C(=O)OCC2COC)nc2nc(Nc3ccc(N4CCN(C)CC4)cc3)ncc12 (stereo not shown)
Resp: > 7.70

Req: Specify reported pIC50 for the compound shown: C#Cc1cc(OC)nc2nc(Nc3ccc(N4CCN(C)CC4)c(NCC4CCC4)c3)ncc12
Resp: 7.00 to 7.70

Req: Specify reported pIC50 for the compound shown: C#Cc1cc(N2C(=O)N(C)CC23CCCC3)nc2nc(Nc3ccc(OCCN(C)C)cc3)ncc12
Resp: 6.00 to 7.00

Req: Specify reported pIC50 for the compound shown: C#Cc1cc(NC(=O)NC2CCCC2)nc2nc(Nc3ccc(N(C)C(C)=O)cc3)ncc12
Resp: > 7.70

* * *

target: Phospho-EGFR (Tyr1068) in H1975 C797S cells (Homo sapiens, UniProt P00533, C797S/L858R/T790M); construct: endogenous in cells; host or cells: H1975 C797S (CRISPR-edited in house from ATCC CRL-5908); experiment: HTRF pEGFR/total EGFR assay in H1975 C797S cells; format: cell-based; details: H1975 C797S cells (CRISPR), compound 3 hours, ratio pEGFR/total EGFR
Sequence (P00533 25-1210 T790M/C797S/L858R): as above
pIC50: −log10 of the molar value.
Parameter pIC50: see the listing below.

> print(dat)
                                   compound  endpoint.value
1  C#Cc1cc(OCCCc2ccccc2)nc2nc(Nc3ccc(N4CCN(C)CC4)cc3)ncc12          < 5.52
2  C#Cc1cc(NC(=O)NC2CCCC2)nc2nc(Nc3cccc(CN4CC(CS(C)(=O)=O)C4)c3)ncc12          > 6.30

Req: Specify reported pIC50 for the compound shown: C#Cc1cc(NC(=O)NCc2cncn2C)nc2nc(Nc3ccc(N4CCN(C)CC4)cc3)ncc12
Resp: < 5.52

Req: Specify reported pIC50 for the compound shown: C#Cc1cc(OC)nc2nc(Nc3ccc(N4CCN(C)CC4)c(Nc4ccccc4)c3)ncc12
Resp: < 5.52

Req: Specify reported pIC50 for the compound shown: C#Cc1cc(N2C(=O)N(C)CC23CCCC3)nc2nc(Nc3ccc(S(=O)(=O)N(C)C)cc3)ncc12
Resp: < 5.52

Req: Specify reported pIC50 for the compound shown: C#Cc1cc(NC(=O)NC2CCCC2)nc2nc(Nc3ccc(S(=O)(=O)N(C)CCN(C)C)cc3)ncc12
Resp: > 6.30

Req: Specify reported pIC50 for the compound shown: C#Cc1cc(N2C(=O)NC[C@H]2COC)nc2nc(Nc3ccc(N4CCN(C)CC4)cc3)ncc12
Resp: < 5.52

Req: Specify reported pIC50 for the compound shown: C#Cc1cc(N2C(=O)NCC2C2CCCC2)nc2nc(Nc3ccc(N4CCN(C)CC4)cc3)ncc12 (centres unmarked)
Resp: > 6.30
